Molecular target: UniProt P00533
Sequence (P00533 whole entry): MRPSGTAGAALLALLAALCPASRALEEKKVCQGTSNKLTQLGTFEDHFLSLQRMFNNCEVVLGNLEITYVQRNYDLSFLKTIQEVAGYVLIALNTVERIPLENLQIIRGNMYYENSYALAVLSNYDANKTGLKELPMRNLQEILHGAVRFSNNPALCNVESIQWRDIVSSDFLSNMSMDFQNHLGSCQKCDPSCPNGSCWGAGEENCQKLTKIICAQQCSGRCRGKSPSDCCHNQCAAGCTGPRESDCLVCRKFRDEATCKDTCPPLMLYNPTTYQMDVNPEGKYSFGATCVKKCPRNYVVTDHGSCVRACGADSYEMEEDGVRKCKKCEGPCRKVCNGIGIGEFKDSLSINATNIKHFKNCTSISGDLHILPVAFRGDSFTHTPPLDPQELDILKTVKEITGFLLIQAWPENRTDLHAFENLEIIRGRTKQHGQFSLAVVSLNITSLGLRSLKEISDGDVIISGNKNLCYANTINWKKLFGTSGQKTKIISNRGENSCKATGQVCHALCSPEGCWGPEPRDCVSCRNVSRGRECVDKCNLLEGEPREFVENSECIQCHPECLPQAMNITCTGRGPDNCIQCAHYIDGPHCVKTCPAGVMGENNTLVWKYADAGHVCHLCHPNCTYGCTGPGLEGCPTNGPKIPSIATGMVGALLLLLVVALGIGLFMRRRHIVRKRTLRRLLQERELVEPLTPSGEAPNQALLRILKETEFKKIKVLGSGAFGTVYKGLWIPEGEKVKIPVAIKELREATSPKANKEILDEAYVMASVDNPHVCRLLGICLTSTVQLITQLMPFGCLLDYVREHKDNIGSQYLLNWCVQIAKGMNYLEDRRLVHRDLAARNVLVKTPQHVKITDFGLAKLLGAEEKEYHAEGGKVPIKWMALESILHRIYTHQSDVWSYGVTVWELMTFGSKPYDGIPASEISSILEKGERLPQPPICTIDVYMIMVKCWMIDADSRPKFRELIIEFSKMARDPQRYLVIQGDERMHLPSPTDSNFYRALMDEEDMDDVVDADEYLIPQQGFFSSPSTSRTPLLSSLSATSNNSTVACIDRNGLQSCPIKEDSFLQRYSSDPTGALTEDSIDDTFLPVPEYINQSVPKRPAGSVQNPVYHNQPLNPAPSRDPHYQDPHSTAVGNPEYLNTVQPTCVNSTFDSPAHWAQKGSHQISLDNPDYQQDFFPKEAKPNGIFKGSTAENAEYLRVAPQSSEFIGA
Experiment: Inhibition of EGFR at 5 uM
MEASURED ENDPOINT: inhibition

Look at each compound and report its inhibition.
1. CS(=O)(=O)N1CCN(Cc2nc3c(N4CCOCC4)nc(-c4cnc(N)nc4)cn3c2Br)CC1
2. CS(=O)(=O)N1CCN(Cc2cn3cc(-c4cnc(N)nc4)nc(N4CCOCC4)c3n2)CC1
3. Cc1c(CN2CCN(S(C)(=O)=O)CC2)nc2c(N3CCOCC3)nc(-c3cnc(N)nc3)cn12
4. CS(=O)(=O)N1CCN(Cc2cn3c(Cl)c(-c4cnc(N)nc4)nc(N4CCOCC4)c3n2)CC1

stdout:
["< 30%", "< 30%", "< 30%", "< 30%"]

stdin: Item under review: Cc1nc(N)ncc1-c1cn2cc(CN3CCN(S(C)(=O)=O)CC3)nc2c(N2CCOCC2)n1 . Reported inhibition?
stdout: < 30%
